Experiment: Binding affinity to c-Abl (unknown origin) assessed as inhibition constant by fluorescence based assay
Set-up: species or system Homo sapiens
pKi: −log10 of the molar value.
PROPERTY_NAME: pKi

Some solved cases for reference:
C#Cc1cccc(-n2nc(-c3ccc(Cl)cc3)c3c(N)ncnc32)c1: 5.15
Nc1ncnc2c1c(-c1ccc(Cl)cc1)nn2-c1cccc(-c2cnnn2Cc2ccccc2)c1: < 3.90

stdin: Provide one value: measured pKi of "Nc1ncnc2c1c(-c1ccc(Cl)cc1)nn2-c1cccc(-c2cnnn2Cc2cccc(-c3ccccc3)c2)c1"
stdout: < 3.90

---

System: HepG2
Assay: Cytotoxicity against human HepG2 cells assessed as reduction in cell viability incubated for 24 hrs by MTT assay
Assay type: functional, cell-based
Details: HepG2, 24 h
PROPERTY_NAME: IC50 (µM)
Give the value, in units of µM, as a plain number.

Recorded results for 3 compounds are shown here.
O=C(Nc1ccccc1)[C@@H]1C[C@H]2CCc3cnnn3CCOc3cccc(c3)C(=O)N1C2: 36.3
O=C(O)[C@@H]1C[C@H]2CCc3cnnn3CCOc3cccc(c3)C(=O)N1C2: 44.9
NC(=O)[C@@H]1C[C@H]2CCc3cnnn3CCOc3cccc(c3)C(=O)N1C2: 34.7

Now look at this entry.
stdin: Give a short answer stating reported IC50 for "CC(C)CNC(=O)[C@@H]1C[C@H]2CCc3cnnn3CCOc3cccc(c3)C(=O)N1C2" .
stdout: 37.3

---

Experiment: Binding affinity to c-Src (unknown origin) assessed as inhibition constant by fluorescence based assay
Design: species or system Homo sapiens
Attribute: pKi
Units for pKi: none; it is -log10 of a concentration expressed in mol/L.

C#Cc1cccc(-n2nc(-c3ccc(Cl)cc3)c3c(N)ncnc32)c1: 5.84
Nc1ncnc2c1c(-c1ccc(Cl)cc1)nn2-c1cccc(-c2cnnn2Cc2ccccc2)c1: 6.68

We now examine a further compound.
stdin: Give the reported pKi for this compound. "Nc1ncnc2c1c(-c1ccc(Cl)cc1)nn2-c1cccc(-c2cnnn2Cc2cccc(-c3ccccc3)c2)c1"
stdout: 7.36

---

# Kd listing for each entry below
Experiment: Binding affinity to Aplysia californica Acetylcholine-binding protein assessed as dissociation constant

Cn1c(=O)cc(OCc2cn(C3CC4CC3[N+]4(C)C)nn2)c2ccccc21 (configuration not stated): 24 nM

stdin: // fetch Kd given entry Cn1c(=O)cc(OCc2cnnn2C2C[C@@H]3C[C@H]2[N+]3(C)C)c2ccccc21 (some centres not stated)
stdout: 331 nM

---

Assay: Inhibition of bovine pancrease trypsin by microplate reader analysis
Parameters: species or system Bos taurus
Residues, ends and D or L forms follow the SMILES beside them.
PROPERTY_NAME: Ki (nM)
Unit nM implied. Number only.

stdin: Retrieve Ki measured for CC[C@H](C)[C@@H]1NC(=O)[C@H](CO)NC(=O)[C@H](CCCCN)NC(=O)[C@H]([C@@H](C)O)NC(=O)[C@@H](NC(=O)[C@H](CCCNC(=N)N)NC(=O)CN)CSSC[C@@H](C(=O)N[C@@H](Cc2ccccc2)C(=O)N2CCC[C@H]2C(=O)N[C@@H](CC(=O)O)C(=O)O)NC(=O)[C@H]([C@@H](C)CC)NC(=O)[C@@H]2CCCN2C(=O)[C@H](C)NC1=O (HELM PEPTIDE1{G.R.C.T.K.S.I.A.P.I.C.F.P.D}$PEPTIDE1,PEPTIDE1,3:R3-11:R3$$$V2.0) and print it.
stdout: 178

Reference for the values: ChEMBL document CHEMBL6182901
